- target_or_test_system: recombinant GST Lck SH2 domain fusion protein (Homo sapiens, UniProt P06239)
- Construct: recombinant GST Lck SH2 domain fusion protein; made in house
- Sequence (P06239 127-224 limits assumed): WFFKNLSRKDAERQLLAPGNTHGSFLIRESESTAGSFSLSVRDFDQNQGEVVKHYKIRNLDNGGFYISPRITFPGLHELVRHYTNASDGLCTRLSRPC
- measurement_notes: solid phase EIA inhibition assay: binding of GST Lck SH2 domain to CD3 ζ chain ITAM 2 phosphopeptide
- run_conditions: assay example 1, stronger inhibitors >60% inhibition, weaker inhibitors <60% inhibition
measure: inhibitory activity, in words

> print(dat)
                                chem.smiles  recorded.measurement
1  Cc1ccc(NC(=O)CN2C(=O)S/C(=C\c3ccc(O)cc3)C2=O)cc1        lower activity
2  Cc1ccc(NC(=O)CN2C(=O)S/C(=C\c3cccc(O)c3)C2=O)cc1        lower activity
3  Cc1cccc(NC(=O)CN2C(=O)S/C(=C\c3ccc(O)cc3)C2=O)c1        lower activity
